Test system: Trypanosoma brucei Lister 427 strain, bloodstream form
Test: Assay for proliferation of kinetoplastid parasite Trypanosoma brucei (Cell Titer Glo, 48 hours)
Assay type: cell-based
Details: Trypanosoma brucei, T. brucei Lister 427 bloodstream form; read-out: T. brucei EC50
Reported EC50 values for a set of compounds
Give just the number in nM; leave the unit off.

The following compounds have reported results that may help.
| COMPOUND | EC50 [nM] |
| --- | --- |
| O=C(Nc1ccc(F)c(-c2cn3cc(-c4cccnc4)cnc3n2)c1)N1CCC1 | 13 |
| Cc1nc(C)c(C(=O)Nc2ccc(F)c(-c3cn4cc(-c5ccncc5F)cnc4n3)c2)o1 | 25 |
| Cc1nc(C)c(C(=O)Nc2ccc(F)c(-c3cn4cc(-c5ccccc5S(C)(=O)=O)cnc4n3)c2)o1 | 68 |
| CC(C)(C)OC(=O)Nc1cnc2nc(-c3cc(NC=O)ccc3F)cn2c1 | 17800 |
| O=C(Nc1ccc(Cl)c(-c2cn3cc(-c4ccc(OC5CCNCC5)cc4)cnc3n2)c1)N1CCCC1 | 460 |

Lab note: need EC50 for `COc1cnc2nc(-c3cc(NC(=O)c4oc(C)nc4C)ccc3F)cn2c1` on Trypanosoma brucei Lister 427 strain, bloodstream form, anyone have it? 1040

Tell me reported EC50 for `Cc1nc(C)c(C(=O)Nc2ccc(F)c(-c3cn4cc(N5CCCC5)cnc4n3)c2)o1` , tested with Trypanosoma brucei Lister 427 strain, bloodstream form. 40

Identify the measured EC50 of `Cc1nc(C)c(C(=O)Nc2ccc(F)c(-c3cn4cc(-c5cncc(C(C)C)c5)cnc4n3)c2)o1` for Trypanosoma brucei Lister 427 strain, bloodstream form. 109

###

Below, each entry is listed with its recorded EC50.
Tested on: Leishmania donovani axenic amastigote parasites
Experiment: Leishmania donovani axenic amastigote proliferation assay (Cell TiterGlo luminescence, 2 day incubation)
Type: cell-based
Conditions: Leishmania donovani, L. donovani axenic amastigotes; read-out: L. donovani amastigotes EC50
Just the number please, in nM, no unit attached.

Reference set, count: 3
| MOLECULE | MEASURED VALUE |
| --- | --- |
| CN(C)c1cnc2nc(-c3cc(NC(=O)N4CCC4)ccc3F)cn2c1 [Compound 469] | 143 |
| Cc1nc(C)c(C(=O)Nc2ccc(F)c(-c3cn4cc(N(C)C(C)C)cnc4n3)c2)o1 [Compound 483] | 169 |
| Cc1nc(C)c(C(=O)Nc2ccc(F)c(-c3cn4cc(NC5CCC5)cnc4n3)c2)o1 [Compound 482] | 569 |

Let's switch to this molecule now.
Request the reported EC50 associated with Cc1nc(C)c(C(=O)Nc2ccc(F)c(-c3cn4cc(-c5ccc[nH]5)cnc4n3)c2)o1 [Compound 573] 155

###

Test system: L. donovani HU3 strain in mouse peritoneal macrophages
Test: Assay for proliferation of Leishmania parasites in infected mouse peritoneal macrophages (SybrGreen staining, high-content imaging, 5 days)
Assay type: cell-based, Leishmania donovani
Conditions: Leishmania donovani, Peritoneal macrophage, L. donovani in mouse peritoneal macrophages, inhibition of proliferation; read-out: L. donovani Macrophage EC50
Assign a class from recorded EC50; defined classes: low bin = under 0.8 µM, mid bin = from 0.8 µM up to 7 µM, high bin = 7 µM and over

Some solved cases for reference:
| MOLECULE | LABEL VALUE |
| --- | --- |
| C=C(C)OC(=O)Nc1cnc2nc(-c3cc(NC(=O)c4oc(C)nc4C)ccc3F)cn2c1 | high bin |
| CCn1ccnc1C(=O)Nc1cnc2nc(-c3cc(NC(=O)N4CCCC4)ccc3F)cn2c1 | low bin |
| CC(C)OC(=O)Nc1cnc2nc(-c3cc(NC(=O)c4ccc(Cl)o4)ccc3Cl)cn2c1 | low bin |
| Cc1cc(C(=O)Nc2ccc(F)c(-c3cn4cc(NC(=O)OC(C)C)cnc4n3)c2)no1 | high bin |
| Cc1nc(C)c(C(=O)Nc2ccc(F)c(-c3cn4cc(NC(=O)[C@@H]5CCCC[C@@H]5N)cnc4n3)c2)o1 | high bin |
| CC(C)OC(=O)Nc1cnc2nc(-c3cc(NC(=O)c4ccco4)ccc3Cl)cn2c1 | low bin |

Returns: class label. Input: `CC(C)OC(=O)Nc1cnc2nc(-c3cc(NC(=O)c4cnc(Cl)[nH]4)ccc3F)cn2c1` high bin

Just checking, what class would you give `CC(C)OC(=O)Nc1cnc2nc(-c3cc(NC(=O)N4CC[C@@H](O)C4)ccc3Cl)cn2c1` here? high bin

Form field 'band' for `Cc1nc(C)c(C(=O)Nc2ccc(F)c(-c3cn4cc(NC(=O)C5(C)COC5)cnc4n3)c2)o1` high bin

Assign a bin to `CCOC(=O)Nc1ccc(Cl)c(-c2cn3cc(-c4ccc(NC)cc4)cnc3n2)c1` mid bin

# classify by EC50 band: CC(C)OC(=O)Nc1cnc2nc(-c3cc(NC(=O)N4CCCC4C)ccc3Cl)cn2c1 (stereo not shown) mid bin

Exam item: assign `COCCOC(=O)Nc1ccc(F)c(-c2cn3cc(NC(=O)OC(C)C)cnc3n2)c1` to the correct category. high bin

Dear colleague, I would appreciate it if you could identify the bin for `COCCOC(=O)Nc1cccc(-c2cn3cc(NC(=O)OC(C)C)cnc3n2)c1` and reply at your convenience. high bin

###

Listing of recorded pEC50 by entry.
Tested on: Trypanosoma cruzi amastigotes (Tulahuen strain expressing Lac-Z) cultured in 3T3 fibroblast cells
Test: microbe, parasite or virus in culture
Assay type: cell-based
Conditions: Trypanosoma cruzi, TULAHUEN, Fibroblast, T. cruzi amastigotes in 3T3 fibroblast cells; read-out: T cruzi EC50
pEC50: −log10 of the molar value.

Some solved cases for reference:
| COMPOUND | pEC50 |
| --- | --- |
| Cc1nc(C)c(C(=O)Nc2ccc(F)c(-c3cn4cc(NC5=NCCN5C)cnc4n3)c2)o1 | < 4.74 |
| CC(C)NNC(=O)Nc1cnc2nc(-c3cc(NC(=O)N4CCCC4)ccc3F)cn2c1 | < 4.70 |
| Cc1nc(C)c(C(=O)Nc2ccc(F)c(-c3cn4cc(NCc5ncc[nH]5)cnc4n3)c2)o1 | < 4.70 |

Next compound, pEC50 to be filled in.
Requested field: pEC50. Item: CN1CCOC(C(=O)Nc2ccc(F)c(-c3cn4cc(C5CC5)cnc4n3)c2)C1 (stereo not shown) < 4.70

###

Test system: Trypanosoma brucei Lister 427 strain, bloodstream form
Experiment: Assay for proliferation of kinetoplastid parasite Trypanosoma brucei (Cell Titer Glo, 48 hours)
Assay type: cell-based
Conditions: Trypanosoma brucei, T. brucei Lister 427 bloodstream form; read-out: T. brucei EC50
pEC50 values for the compounds below.
For clarity, pEC50 is expressed as the negative log10 of concentration in mol/L.

Completed entries (count: 8):
| COMPOUND | pEC50 |
| --- | --- |
| O=C(Nc1ccc(F)c(-c2cn3cc(-c4ccccn4)cnc3n2)c1)N1CC[C@@H](F)C1 | 8.40 |
| Cc1nc(C)c(C(=O)Nc2ccc(F)c(-c3cn4cc(-c5cnc(C(C)C)cn5)cnc4n3)c2)o1 | 6.79 |
| Cc1nc(C)c(C(=O)Nc2ccc(F)c(-c3cn4cc(C5CCN(C(=O)OC(C)(C)C)CC5)cnc4n3)c2)o1 | 7.01 |
| Cc1nc(C)c(C(=O)Nc2ccc(F)c(-c3cn4cc(NCC(C)C)cnc4n3)c2)o1 | 6.62 |
| Cc1nc(C)c(C(=O)Nc2ccc(F)c(-c3cn4cc(-c5ccc(CCN(C)C)cc5)cnc4n3)c2)o1 | 6.30 |
| Cc1cncc(-c2cnc3nc(-c4cc(NC(=O)c5oc(C)nc5C)ccc4F)cn3c2)c1 | 6.50 |
| Cc1nc(C)c(C(=O)Nc2ccc(F)c(-c3cn4cc(OCc5ccccn5)cnc4n3)c2)o1 | 6.21 |
| Cc1nc(C)c(C(=O)N(c2ccc(F)c(-c3cn4cc(OC(C)C)cnc4n3)c2)C(C)C)o1 | 4.91 |

Next, consider the following compound.
Return reported pEC50; argument: `Cc1nc(C)c(C(=O)Nc2ccc(F)c(-c3cn4cc(-c5ccc[nH]5)cnc4n3)c2)o1` 6.97

###

System: L. donovani HU3 strain in mouse peritoneal macrophages
Experiment: Assay for proliferation of Leishmania parasites in infected mouse peritoneal macrophages (SybrGreen staining, high-content imaging, 5 days)
Format: cell-based, Leishmania donovani
Conditions: Leishmania donovani, Peritoneal macrophage, L. donovani in mouse peritoneal macrophages, inhibition of proliferation; read-out: L. donovani Macrophage EC50
METRIC: pEC50
Here pEC50 is given on a logarithmic scale as minus log10 of the concentration in mol/L.

| COMPOUND | pEC50 |
| --- | --- |
| Cc1ncoc1C(=O)Nc1cccc(-c2cn3cc(NC(=O)OC(C)C)cnc3n2)c1 | 4.72 |
| CC1=C(C(=O)Nc2cnc3nc(-c4cc(NC(=O)c5oc(C)nc5C)ccc4F)cn3c2)OCCO1 | 6.32 |
| O=C(Nc1ccc(F)c(-c2cn3cc(-c4ccccn4)cnc3n2)c1)N1CC(F)(F)C1 | 7.89 |
| CON(C)C(=O)Nc1ccc(Cl)c(-c2cn3cc(NC(=O)OC(C)C)cnc3n2)c1 | 6.11 |

Query: pEC50; subject: `CC(C)OC(=O)Nc1cnc2nc(-c3cc(NC(=O)N4CC(Cl)C4)ccc3F)cn2c1` 6.01
